- Target Entity: Neurotensin receptor type 1 (Homo sapiens, UniProt P30989)
- Sequence (P30989 whole entry, the tested form may be a part): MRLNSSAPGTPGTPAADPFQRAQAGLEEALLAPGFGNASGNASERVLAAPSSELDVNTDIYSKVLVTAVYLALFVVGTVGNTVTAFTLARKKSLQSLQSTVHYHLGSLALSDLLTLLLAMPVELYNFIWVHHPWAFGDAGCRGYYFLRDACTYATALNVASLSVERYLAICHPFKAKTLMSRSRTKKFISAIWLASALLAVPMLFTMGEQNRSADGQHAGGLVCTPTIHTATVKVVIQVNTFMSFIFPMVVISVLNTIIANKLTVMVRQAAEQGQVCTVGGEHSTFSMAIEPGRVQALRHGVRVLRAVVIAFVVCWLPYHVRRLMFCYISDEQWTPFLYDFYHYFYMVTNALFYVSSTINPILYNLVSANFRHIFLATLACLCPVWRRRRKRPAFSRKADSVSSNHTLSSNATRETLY
- Protocol Text: Allosteric modulation of human GFP-fused PK-tagged Gq-coupled NTR1 expressed in CHOK1 cells assessed as induction of NT (8 to 13) peptide-mediated beta-arrestin recruitment measured after 90 mins by pathhunter assay
- Format: cell-based
Observation Type: EC50 (µM)

I = COc1ccccc1C1CCN(c2nc(C3CCCC3)nc3ccc(N(C)CCO)cc23)CC1
II = CCCN(C)c1ccc2c(N3CCC(c4ccccc4OC)CC3)nc(C3CC3)nc2c1
III = COc1ccccc1C1CCN(c2nc(C3(C)CCC3)nc3ccc(N(C)CCO)cc23)CC1
Q) Sort ascending by EC50. # list labels per requested ordering
A) III, I, II
